Where do these numbers come from? They come from PubChem BioAssay (NCI).

- METHOD NOTES: NCI Yeast Anticancer Drug Screen. Data for the bub3 strain (AID 167)
- STATED CONDITIONS: S. cerevisiae bub3 mutant strain, at 5.0 µM (retest, dose inferred, filed as 0.5), stronger effect = higher value
The panel holds about 79,000 compounds, 15% with a hit somewhere; the sample as a whole holds those more often.
READOUT TYPE: growth inhibition (%)
Give the value in % but do not write % after it.

MOLECULE | growth inhibition, %
C/C(=N\NC(=S)Nc1ccc(N(C)C)cc1)c1ccccn1 | -1

q: Which value of growth inhibition has been reported for C/C(=N\OS(=O)(=O)O)SC1OC(CO)C(O)C(O)C1O (stereo not given) in the records?
a: -2

====

Below, each entry is listed with its recorded growth inhibition.
- METHOD NOTES: NCI Yeast Anticancer Drug Screen. Data for the cln2 rad14 strain (AID 165);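 also: 0% = growth equal to vehicle treated cultures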
- STATED CONDITIONS: S. cerevisiae cln2 rad14 strain, at 50.0 µM (retest, dose inferred, filed as 5.0), stronger effect = higher value
Compounds without any hit were thinned out: in the full panel of roughly 79,000, 15% have a hit.
Write the number in % without appending the unit.

q: Quick one: growth inhibition of CCC(c1ccc(OC)cc1)C(O)(CC)c1ccc(OC)cc1 (stereo not drawn) ?
a: 99

q: Look up growth inhibition: COc1ccc2c(c1)CCC/C2=N\NS(=O)(=O)c1c(C)cc(C)cc1C
a: 68

q: Would you mind telling me what growth inhibition value was observed for O=[N+]([O-])c1cc(C(F)(F)F)cc([N+](=O)[O-])c1N1CCCC(n2cccc2)C1 (stereo not drawn) ?
a: 28

q: Which value of growth inhibition has been reported for CC(CC(C)[C@H]1CCC2[C@H]3C(CC(=O)[C@@]21C)[C@@]1(C)CCC(O)C[C@H]1C[C@@H]3O)C(=O)O (stereo partly drawn) in the records?
a: 99

q: Look up growth inhibition for this molecule: Cc1cc(N(CCOS(C)(=O)=O)CCOS(C)(=O)=O)ccc1C=Nc1ccc(-c2csc(-c3ccc(Br)cc3)n2)cc1
a: 88

q: May I ask what growth inhibition has been recorded for CCNC(=S)N/N=C(\C)c1cccc(C)n1 ?
a: 24

q: Which growth inhibition value is on record for O=C(NC1=C(Cl)C(=O)c2ccccc2C1=O)C(=O)C(C(=O)c1ccc2ccccc2c1)C1OC(=O)c2ccccc21 (stereo not drawn) ?
a: 95

q: Data request, read-out growth inhibition, for O=C(C=P(c1ccccc1)(c1ccccc1)c1ccccc1)c1ccccc1-c1ccccc1C(=O)C=P(c1ccccc1)(c1ccccc1)c1ccccc1
a: 93

q: // query growth inhibition value for entry NC(N)=Nc1ccc(C(=O)Oc2c(Cl)cc([N+](=O)[O-])cc2Cl)cc1
a: 32

q: Item under review: ON1CCc2c([nH]c3ccccc23)C1c1ccc(Cl)cc1 (stereo not drawn) . Reported growth inhibition?
a: 88

q: Returns the measured growth inhibition for the input molecule. Input: COc1cc2c(cc1OC)NCC1COc3c(ccc(OC)c3OC)C1=N2 (stereo not drawn)
a: 17

q: Fill in: growth inhibition of ICCCCCCCCCC[n+]1ccc2ccccc2c1 is ___
a: 99

q: Please look up its growth inhibition: O=[N+]([O-])c1cccc2c1[nH]c1c(-c3ccccc3)nccc12
a: 67

====

- METHOD NOTES: NCI Yeast Anticancer Drug Screen. Data for the mec2-1 strain (AID 157)
- STATED CONDITIONS: S. cerevisiae mec2-1 strain, at 50.0 µM, stronger effect = higher value
Compounds without any hit were thinned out: in the full panel of roughly 79,000, 15% have a hit.
READOUT TYPE: growth inhibition (%)
Lab book: enter the figure in %, no units written.

Recorded results for 5 molecules are shown here.
MOLECULE | READOUT TYPE | ASSAY VALUE
COC(=O)c1ccc(C)cc1C1CN=NC12Cc1cc(C)ccc1C2=O (stereo not given) | growth inhibition | 19.6
Clc1ccc2ns[s+]c2c1 | growth inhibition | 48.1
N#C/C=C/C=C/C#N | growth inhibition | 79.8
CC(=O)Nc1cccc(Oc2ccc(Br)cc2[N+](=O)[O-])c1 | growth inhibition | 10
C#CCn1cnc2c(N)ncnc21 | growth inhibition | 15.8

Now take the following molecule into account.
q: Can you share its growth inhibition? I mean this molecule: CN(O)C(=S)c1ccccc1
a: 93.3

====

- METHOD NOTES: NCI Yeast Anticancer Drug Screen. Data for the mec2-1 strain (AID 157)
- STATED CONDITIONS: S. cerevisiae mec2-1 strain, at 50.0 µM (retest, dose inferred, filed as 5.0), stronger effect = higher value
This is part of a sample that, as a whole, favours compounds with a hit. Of some 79,000 tested, about 15% had one in any assay.
growth inhibition vs 30%: at or above is met, below is not met.

Answered examples (6):
COMPOUND | ASSIGNED LABEL
COc1ccc(C23OCCN2C(=O)c2ccccc23)cc1 (configuration not stated) | not met
CCN1C2=NC(=O)N(C)C(=O)C2(Cl)C(C(SC)S(=O)(=O)c2ccc(C)cc2)c2ccccc21 (configuration not stated) | not met
Cc1ccc(S)c(S)c1 | met
[O-][n+]1c(-c2ccccc2)c(Cl)c(-c2ccccc2)n1O | met
CCCCCCCCCc1cccc(N2C(N)=NC(N)=NC2(C)C)c1 | not met
Oc1ccc2c(c1O)/C(=C/C=NCC1(O)OCC(O)C(O)C1O)C=N2 (configuration not stated) | not met

q: Entry COc1ccc(Cc2nc3ccccc3s2)cc1OC : is its growth inhibition no less than 30%?
a: met

q: hey, is growth inhibition for this one >= 30%? C[n+]1c2ccc(Cl)cc2nc2cc(-c3ccccc3)ccc21
a: met

q: Dear colleague, could you confirm whether [Fe+2].c1cc[cH-]c1.c1ccc(-c2ccc[cH-]2)cc1 has growth inhibition at or above 30%?
a: met

q: Hi team, for CCC(CC)(c1ccc(C)cc1)c1ccc(C)cc1 , is the recorded growth inhibition at or above 30%?
a: met

q: hey, is growth inhibition for this one >= 30%? CC(=O)C1(C(C)=O)C2=C(C(=O)C(Cl)=C(Cl)C2=O)N2C=CC=CC21 (configuration not stated)
a: met

q: Evaluate CC(=O)Nc1cc(Cl)c2c(c1)C(=O)c1ccccc1-2 : growth inhibition at minimum 30%?
a: met

====

- METHOD NOTES: NCI Yeast Anticancer Drug Screen. Data for the rad50 strain (AID 155);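 also: 0% = growth of vehicle-only cultures of the same strain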
- STATED CONDITIONS: S. cerevisiae rad50 strain growth inhibition; at 50.0 µM
This is part of a sample that, as a whole, favours compounds with a hit. Of some 79,000 tested, about 15% had one in any assay. Calls of active or inactive are those of the source. Rule as the data show it: active = growth inhibition above about 70%; inactive = the rest.
Respond with a class label; see active, inactive

MOLECULE | ASSIGNED LABEL
Clc1cc(Cl)c2cc3cccc[n+]3cc2c1Cl | active

q: How did this test come out for C(=C\c1cnnc2ccccc12)/c1ccco1 ?
a: inactive

q: Hey, what did the test say about CC(C)c1ccc(O)c(O)c(=O)c1 ?
a: active

q: Please share the test call associated with N#CC#Cc1cccc(C#CC#N)c1 .
a: active

q: Given CCC(Cl)COP(=O)(OC(c1ccc(Cl)c(Cl)c1)P(=O)(OCC(Cl)CC)OCC(Cl)CC)C(CC)CCl (stereo unspecified) , state the outcome it received in this test.
a: active

q: State the result this test recorded for CC1(C)OC2C(COC(c3ccccc3)(c3ccccc3)c3ccccc3)OC(n3cnc4c(=O)[nH]cnc43)C2O1 (stereo unspecified) .
a: inactive

====

- METHOD NOTES: NCI Yeast Anticancer Drug Screen. Data for the mlh1 rad18 strain (AID 175)
- STATED CONDITIONS: S. cerevisiae mlh1 rad18 strain growth inhibition; at 50.0 µM (retest, dose inferred, filed as 5.0)
- Method: Growth inhibition of yeast strains with defined genetic alterations is measured as a screen for potential anti-cancer activity. Selected strains with alterations in DNA damage repair or cell cycle control were exposed to compounds and growth inhibition was measured relative to vehicle treated controls. The strain used in this assay is mlh1 rad18
Compounds without any hit were thinned out: in the full panel of roughly 79,000, 15% have a hit. Activity calls are given as the source filed them. Rule as the data show it: active = growth inhibition above about 70%; inactive = the rest.
Just give me one of these, please: YES for active, NO for inactive

MOLECULE | ASSIGNED LABEL
Clc1cccc(Cl)c1C(Nc1nncs1)Nc1nncs1 | YES
CCCCN(CCO)CC(O)Cn1cnc2c(N)ncnc21 (stereo not given) (tested in a mixture with another compound) | NO
Cc1cc2nc3n(c2cc1C)C(c1c(F)cccc1F)SC3 (stereo not given) | NO
CCCCCN(CCCCC)CC(=O)OCC1(C)CCCC2(C)C3CCC(C(C)C)=CC3=CCC12 (stereo not given) | NO

q: Hey, what did the test say about CC1CN(C(=S)NNC(C)c2cc3ccccc3cn2)CC(C)O1 (stereo not given) ?
a: YES

====

- METHOD NOTES: NCI Yeast Anticancer Drug Screen. Data for the sgs1 mgt1 strain (AID 161);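 also: 0% = growth of cultures given vehicle only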
- STATED CONDITIONS: S. cerevisiae sgs1 mgt1 strain, at 5.0 µM (retest, dose inferred, filed as 0.5), stronger effect = higher value
- Description: Growth inhibition of yeast strains with defined genetic alterations is measured as a screen for potential anti-cancer activity. Selected strains with alterations in DNA damage repair or cell cycle control were exposed to compounds and growth inhibition was measured relative to vehicle treated controls. The strain used in this assay is sgs1 mgt1
The panel holds about 79,000 compounds, 15% with a hit somewhere; the sample as a whole holds those more often.
The following compounds are listed with their measured growth inhibition values.
I only need the number, in %, no unit after it.

COMPOUND | growth inhibition [%]
COc1ccc(N=N/N=c2\sc3cc(Cl)ccc3n2C)cc1 | 21
CCCN(CCC)C(=S)N/N=C/c1cccc(C)n1 | -40
O=C1C2=C(CCCC2)C(=O)C(Cl)C1Cl (configuration not stated) | 24
CCCCCCCCCCCCNC(=O)C[n+]1cccc(C(=O)N(C)C)c1 | -17
CCCCC(O)CCCC | -5

q: Could you share which growth inhibition value was measured for Cc1c2ccncc2c(C)c2c1sc1ccccc12 ?
a: 43

q: Return reported growth inhibition; argument: COc1ccc(C2SCC(=O)N2c2ccc(-c3ccc(-n4c(-c5ccccc5)nc5ccccc5c4=O)cc3)cc2)cc1 (configuration not stated)
a: 7

q: Which growth inhibition value is on record for C/C=C/C(=O)NCC(C(C)C)/[N+]([O-])=N/O (configuration not stated) ?
a: 97

q: Query: growth inhibition; subject: Cc1n[n+]([O-])c(C)cc1[N+](=O)[O-]
a: 17

q: Which growth inhibition is reported for this compound? O=C(O)CC/C(=N\Nc1ccccc1)C(=O)O
a: -8

q: Could you share which growth inhibition value was measured for CCC1=C(c2ccc(OC(C)=O)cc2)Cc2cc(OC(C)=O)ccc21 ?
a: -3

q: If you can, please state the reported growth inhibition value of CCC[n+]1ccc(/C=N\NC(N)=S)c2ccccc21 .
a: 21
